# credit: ChEMBL document CHEMBL5665443

target_or_system: Endonuclease 8-like 2 (Homo sapiens) (UniProt Q969S2);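 further: fluorescence at 594 nm reports NEIL2 cutting and release of a quenched double-stranded DNA oligo substrate, reduced signal read as inhibition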
Sequence (Q969S2 whole entry): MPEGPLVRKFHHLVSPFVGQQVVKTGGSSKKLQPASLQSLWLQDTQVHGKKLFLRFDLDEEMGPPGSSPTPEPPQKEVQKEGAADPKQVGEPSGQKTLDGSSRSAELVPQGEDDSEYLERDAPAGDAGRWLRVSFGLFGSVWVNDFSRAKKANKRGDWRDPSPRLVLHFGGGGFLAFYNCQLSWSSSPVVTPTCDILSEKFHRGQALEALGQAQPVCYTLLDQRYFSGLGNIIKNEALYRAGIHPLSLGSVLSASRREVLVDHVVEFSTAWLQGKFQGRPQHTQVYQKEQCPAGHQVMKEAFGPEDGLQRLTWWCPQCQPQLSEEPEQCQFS
protocol_conditions: Compound Concentration 1.0 uM, Hit No
Description: Inhibition of NEIL2 by quantifying inhibition of NEIL2-mediated cleavage and dissociation of quenched duplex DNA oligonucleotides, measured as fluorescence at 594 nm.
readout_type: inhibition (%)

> print(dat)
                           substance.smiles                          target.or.system  readout.type  measured
1  NC(=O)c1ccc2nc(-c3ccc(C4(N)CCC4)cc3)c(-c3ccccc3)n2n1  Endonuclease 8-like 2 (Homo sapiens) (UniProt Q969S2)    inhibition     -7.61
2  COc1cc2ncn(-c3cc(OCc4ccccc4C(F)(F)F)c(C(N)=O)s3)c2cc1OC  Endonuclease 8-like 2 (Homo sapiens) (UniProt Q969S2)    inhibition     -8.65
3  N[C@@H]1CCCN(c2c(/C=C3\SC(=O)NC3=O)cccc2-c2ccccc2)C1  Endonuclease 8-like 2 (Homo sapiens) (UniProt Q969S2)    inhibition      1.04
4  O=C(Nc1ccc(-n2nc(-c3cccnc3)cc2C(F)(F)F)cn1)c1ccc(-c2ccccc2)c(F)c1  Endonuclease 8-like 2 (Homo sapiens) (UniProt Q969S2)    inhibition      4.61
5  Cc1cccc(-c2[nH]c(CNc3ccccc3F)nc2-c2ccc3ncnn3c2)n1  Endonuclease 8-like 2 (Homo sapiens) (UniProt Q969S2)    inhibition      6.16
6  CN(C)C(=O)/C(C#N)=C/c1ccc(-c2nc3cnc4c(ccn4C)c3n2C2CCCCC2)o1  Endonuclease 8-like 2 (Homo sapiens) (UniProt Q969S2)    inhibition      -3.8
7  CC(C)c1cc(Nc2nc(N3CCC[C@H](N)C3)ncc2C(N)=O)cc(C(C)C)n1  Endonuclease 8-like 2 (Homo sapiens) (UniProt Q969S2)    inhibition      11.5
8  CC(=O)c1c(C)c2cnc(Nc3ccc(N4CCNCC4)cn3)nc2n(C2CCCC2)c1=O  Endonuclease 8-like 2 (Homo sapiens) (UniProt Q969S2)    inhibition      2.12
9  CC(C)(C)c1cc(NC(=O)Nc2ccc(-c3cn4c(n3)sc3cc(OCCN5CCOCC5)ccc34)cc2)no1  Endonuclease 8-like 2 (Homo sapiens) (UniProt Q969S2)    inhibition      1.85

* * *

target_or_system: Uracil-DNA glycosylase (Homo sapiens) (UniProt P13051);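 further: UNG excision on a quenched double-stranded DNA oligo probe, with APE1 added for strand incision and turnover, read as fluorescence at 594 nm as strands separate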
Sequence (P13051 whole entry): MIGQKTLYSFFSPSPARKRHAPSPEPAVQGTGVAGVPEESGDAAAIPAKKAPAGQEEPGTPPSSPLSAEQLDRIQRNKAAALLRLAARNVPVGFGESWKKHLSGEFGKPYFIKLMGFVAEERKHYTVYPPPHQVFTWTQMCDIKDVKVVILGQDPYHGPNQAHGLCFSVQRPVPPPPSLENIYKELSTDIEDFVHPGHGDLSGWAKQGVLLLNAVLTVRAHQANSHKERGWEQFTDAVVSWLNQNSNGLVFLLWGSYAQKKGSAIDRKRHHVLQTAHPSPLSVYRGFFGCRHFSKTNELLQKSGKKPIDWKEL
protocol_conditions: Compound Concentration 10.0 uM, Hit No
Description: Inhibition of UNG by quantifying inhibition of UNG-mediated cleavage and dissociation of quenched duplex DNA oligonucleotides, measured as fluorescence at 594 nm. To generate a functional strand incision and increase turn-over this assay is coupled to APE1.
readout_type: inhibition (%)

> print(dat)
                                   compound                          target.or.system  measured
1  N#Cc1c(N)nc(SCc2csc(-c3ccc(Cl)cc3)n2)c(C#N)c1-c1ccc(OCCO)cc1  Uracil-DNA glycosylase (Homo sapiens) (UniProt P13051)     -1.02
2  OCCOCCN1CCN(C(c2ccccc2)c2ccc(Cl)cc2)CC1 (centres undefined)  Uracil-DNA glycosylase (Homo sapiens) (UniProt P13051)     -3.83
3  COc1cc(Br)c(S(=O)(=O)Nc2ccc(C(F)(F)F)c(O[C@@H]3CCN(C)C3)c2)cc1OC  Uracil-DNA glycosylase (Homo sapiens) (UniProt P13051)     -6.21
4  COc1ccc(CC(=O)NC(N/C(=N/C#N)Nc2cccc3ncccc23)C(C)(C)C)cc1OC (centres undefined)  Uracil-DNA glycosylase (Homo sapiens) (UniProt P13051)      -5.2
5  O=[N+]([O-])c1ccc2nc(COCc3nc4ccc([N+](=O)[O-])cc4[nH]3)[nH]c2c1  Uracil-DNA glycosylase (Homo sapiens) (UniProt P13051)     0.834
6            Cc1ccccc1C#Cc1ccc(CCC(=O)O)cc1  Uracil-DNA glycosylase (Homo sapiens) (UniProt P13051)     -2.61
7  Cn1cncc1[C@](O)(COc1ccc(C#N)cc1-c1ccc(OC(F)(F)F)cc1)c1ccc(C#N)cc1  Uracil-DNA glycosylase (Homo sapiens) (UniProt P13051)     -1.26
8  NS(=O)(=O)c1cc(NC(=O)C2(c3ccccc3Cl)CC2)ccc1Oc1cccc(Cl)c1  Uracil-DNA glycosylase (Homo sapiens) (UniProt P13051)     -3.29
9  CC(C)Oc1ccc(-c2nn([C@@H](C)c3oc4ccc(F)cc4c(=O)c3-c3cccc(F)c3)c3ncnc(N)c23)cc1F  Uracil-DNA glycosylase (Homo sapiens) (UniProt P13051)      6.08

* * *

target_or_system: Endonuclease 8-like 1 (Homo sapiens);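 further: fluorescence at 594 nm from quenched duplex DNA oligonucleotides released by NEIL1 cleavage and strand separation, reported as reduction of this enzyme activity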
protocol_conditions: Compound Concentration 10.0 uM, Hit No
Description: Inhibition of NEIL1 by quantifying inhibition of NEIL1-mediated cleavage and dissociation of quenched duplex DNA oligonucleotides, measured as fluorescence at 594 nm.
Below: a set of entries, each annotated with reported inhibition.
readout_type: inhibition

> print(dat)
                                    compound  measured
 1               Brc1c(NC2=NCCN2)ccc2nccnc12    -5.69%
 2  Cc1ccc(-c2ccc3c(ccc4sc5c(c43)NCC(C)NC5=O)n2)cn1 (stereo unspecified)     -2.5%
 3  Cc1c(C(=O)Nc2ccc(N3C[C@@H](C)O[C@@H](C)C3)nc2)cccc1-c1ccc(OC(F)(F)F)cc1    -5.39%
 4     O=C(Nc1cccc(C(F)(F)F)c1)c1cc(Cl)ccc1O    -4.58%
 5  O=C1CSC(=O)N1C(CCc1ccncc1)COc1ccc(-c2cccc([N+](=O)[O-])c2)cc1 (stereo unspecified)     2.68%
 6  CNC(=O)c1cc(C(=O)NC2CC2)cn(Cc2ccccc2)c1=O     8.49%
 7    O=C(c1cc(C2CC2)on1)N(C1CCCCC1)C1CCCCC1    0.306%
 8  N=C(N)NCCC[C@H](NC(=O)C12CC3CC(CC(C3)C1)C2)C(=O)N[C@@H](Cc1ccccc1)C(N)=O      4.9%
 9  OCCn1cc(-c2cnc3nnn(Cc4ccc5ncccc5c4)c3n2)cn1     2.52%
10  OC1(c2ccc(Cl)cc2)CCN(Cc2c[nH]c3ccccc23)CC1     -5.1%
11           O=C1NCCc2c(OCCCCN3CCCCC3)cccc21     5.05%
12  CSc1cc2c(cc1C(F)(F)F)N(C(=O)Nc1cccnc1)CC2     6.91%
13  CCn1cnc2c(-c3ccc(F)c(-c4ccc(S(=O)(=O)CC)cc4OC)c3)cnnc21     6.83%
14  C[C@@H](C(N)=O)[C@H](N)c1nc2ccc(C(C)(C)C)cc2[nH]1    0.158%
15  CC#C[C@@H](CC(=O)O)c1ccc(OCc2cccc(-c3ccc(C(F)(F)F)cc3)c2)cc1     1.13%
16  Cc1cn2cc(CC(=O)N3CCC4(CC3)CN(Cc3ccc(-n5nccn5)cc3Cl)C4)nc2s1    -6.88%
17  CCCCC/C=C\C/C=C\C/C=C\C/C=C\CCCC(=O)OC(CO)CO     4.39%
18  COc1ccccc1S(=O)(=O)Nc1ccc(C)cc1Oc1ccc2c(N)nccc2c1       11%
19  COc1cc(-c2cncc(-c3ccc(N4CCN(C(C)C)CC4)cc3)c2C)cc(F)c1C(=O)N1CCCC1     3.31%
20  O=c1ccc2ccc(OCCCCN3CCN(c4cccc5sccc45)CC3)cc2[nH]1     6.47%
21                             NCCc1c[nH]cn1   -0.352%

* * *

target_or_system: UniProt Q969S2
protocol_conditions: Compound Concentration 10.0 uM, Hit No
Where a SMILES comes first, the peptide text is derived from it. [ ]: non-standard residue; d: D form. Arg(Me) = CNC(=N)NCCC[C@H](N)C(=O)O; d3Pal = N[C@H](Cc1cccnc1)C(=O)O; azaGly = NNC(=O)O
readout_type: inhibition (%)

compound	measured
Cc1nc(-c2ccc(-c3ccc(C(=O)N4CCc5cc6c(cc54)C4(CCN(C)CC4)CO6)cc3)c(C)c2)no1	-3.48
COc1ccc(CN(CCN(C)C)c2ccccn2)cc1	-3.23
CC(COc1ccccc1)N(CCCl)Cc1ccccc1 (centres undefined)	5.01
NS(=O)(=O)c1c(Cl)ccc(NC(=O)Nc2cccc(Cl)c2Cl)c1O	3.51
O=C(NNC(=O)c1ccc(CNS(=O)(=O)c2ccc(F)c(Cl)c2)cc1)c1ccccc1	-6.97
O=C1NCCc2c(OCCCCN3CCCCC3)cccc21	3.98
CN(C)[C@H]1CCN(c2cc(-c3ccccc3)nc3ccnn23)C1	9.71
Brc1c(NC2=NCCN2)ccc2nccnc12	6.5
CC(C)CCC[C@@H](C)[C@H]1CC[C@H]2[C@@H]3[C@H](O)C=C4C[C@@H](O)CC[C@]4(C)[C@H]3CC[C@]12C	-6.22
N#Cc1cccc(C(=O)Nc2cc(-c3ccccc3)nn2-c2ccccc2)c1	0.764
O=C(NCC12CC3CC(CC(C3)C1)C2)c1ccccc1Cl	-6.46
CCCOc1ccc2[nH]cc(C3=CCNCC3)c2n1	-8.25
O=C1NCN(c2ccccc2)C12CCN(CC1COc3ccccc3O1)CC2 (centres undefined)	-3.23
CCc1cc2c(c(CC)n1)CCC(=O)N2Cc1ccc(-c2ccccc2-c2nnn[nH]2)cc1	2.26
CN(C)C(=O)C(CCN1CCC(O)(c2ccc(Cl)cc2)CC1)(c1ccccc1)c1ccccc1	7.75
O=C(O)COc1cccc(-c2ocnc2-c2nc(-c3ccccc3)c(-c3ccccc3)o2)c1	-0.35
COc1ccc(CCCN2CCC(COC(c3ccccc3)c3ccccc3)CC2)cc1	8.06
CNC(=N)NCCC[C@H](NC(=O)[C@H](CC(C)C)NC(=O)NNC(=O)[C@H](Cc1ccccc1)NC(=O)[C@H](CO)NC(=O)[C@H](CC(N)=O)NC(=O)[C@@H](Cc1cccnc1)NC(=O)[C@H](N)Cc1ccc(O)cc1)C(=O)NCC(N)=O (H-[dY][d3Pal]NSF[azaGly]L[Arg(Me)]G-NH2)	-2.53
O=C(c1ccc2c(ccn2-c2ccc(F)cc2)c1)N1CC(N2CCN(C(=O)c3nccs3)CC2)C1	-1.76
